assay: in vitro; settings: CD-1, mouse, liver microsomes
Assign class by CLint scaled at 0.75 h, 1 µM: not lower than 100 mL/min/kg means true (1); lower than 100 mL/min/kg means false (0).

Is the recorded value of CLint scaled at 0.75 h, 1 µM equal to or greater than 100 mL/min/kg for this molecule? O=C(N[C@@H](Cn1ccnc1)c1ccc(Cl)cc1Cl)c1ccc(-c2nnc(-c3cccc(-c4ccccn4)c3)o2)cc1
true (1)

Is the recorded value of CLint scaled at 0.75 h, 1 µM equal to or greater than 100 mL/min/kg for this molecule? CS(=O)(=O)c1ccc(-c2nnc(-c3ccc(C(=O)N[C@@H](Cn4ccnc4)c4ccc(Cl)cc4Cl)cc3)o2)cc1Cl
false (0)

Is the recorded value of CLint scaled at 0.75 h, 1 µM equal to or greater than 100 mL/min/kg for this molecule? O=C(N[C@@H](Cn1ccnc1)c1ccc(Cl)cc1Cl)c1ccc(-c2nnc(-c3cc(F)cc(-c4ncncc4F)c3)o2)cc1
true (1)

Is the recorded value of CLint scaled at 0.75 h, 1 µM equal to or greater than 100 mL/min/kg for this molecule? O=C(N[C@@H](Cn1ccnc1)c1ccc(Cl)cc1Cl)c1ccc(-c2nnc(-c3ccccc3)o2)cc1
false (0)

Is the recorded value of CLint scaled at 0.75 h, 1 µM equal to or greater than 100 mL/min/kg for this molecule? O=C(N[C@@H](Cn1ccnc1)c1ccc(Cl)cc1Cl)c1ccc(-c2nnc(-c3ccc(Cl)c(Cl)c3)o2)cc1
true (1)

---
Is the recorded value of CLint scaled at 0.75 h, 1 µM equal to or greater than 100 mL/min/kg for this molecule? O=C(N[C@@H](Cn1ccnc1)c1ccc(Cl)cc1Cl)c1ccc(-c2nnc(-c3cc(F)cc(OCC(F)(F)F)c3)o2)cc1
false (0)
